- System Under Test: ATP-dependent translocase ABCB1 (Homo sapiens, UniProt P08183)
- Sequence (P08183 whole entry): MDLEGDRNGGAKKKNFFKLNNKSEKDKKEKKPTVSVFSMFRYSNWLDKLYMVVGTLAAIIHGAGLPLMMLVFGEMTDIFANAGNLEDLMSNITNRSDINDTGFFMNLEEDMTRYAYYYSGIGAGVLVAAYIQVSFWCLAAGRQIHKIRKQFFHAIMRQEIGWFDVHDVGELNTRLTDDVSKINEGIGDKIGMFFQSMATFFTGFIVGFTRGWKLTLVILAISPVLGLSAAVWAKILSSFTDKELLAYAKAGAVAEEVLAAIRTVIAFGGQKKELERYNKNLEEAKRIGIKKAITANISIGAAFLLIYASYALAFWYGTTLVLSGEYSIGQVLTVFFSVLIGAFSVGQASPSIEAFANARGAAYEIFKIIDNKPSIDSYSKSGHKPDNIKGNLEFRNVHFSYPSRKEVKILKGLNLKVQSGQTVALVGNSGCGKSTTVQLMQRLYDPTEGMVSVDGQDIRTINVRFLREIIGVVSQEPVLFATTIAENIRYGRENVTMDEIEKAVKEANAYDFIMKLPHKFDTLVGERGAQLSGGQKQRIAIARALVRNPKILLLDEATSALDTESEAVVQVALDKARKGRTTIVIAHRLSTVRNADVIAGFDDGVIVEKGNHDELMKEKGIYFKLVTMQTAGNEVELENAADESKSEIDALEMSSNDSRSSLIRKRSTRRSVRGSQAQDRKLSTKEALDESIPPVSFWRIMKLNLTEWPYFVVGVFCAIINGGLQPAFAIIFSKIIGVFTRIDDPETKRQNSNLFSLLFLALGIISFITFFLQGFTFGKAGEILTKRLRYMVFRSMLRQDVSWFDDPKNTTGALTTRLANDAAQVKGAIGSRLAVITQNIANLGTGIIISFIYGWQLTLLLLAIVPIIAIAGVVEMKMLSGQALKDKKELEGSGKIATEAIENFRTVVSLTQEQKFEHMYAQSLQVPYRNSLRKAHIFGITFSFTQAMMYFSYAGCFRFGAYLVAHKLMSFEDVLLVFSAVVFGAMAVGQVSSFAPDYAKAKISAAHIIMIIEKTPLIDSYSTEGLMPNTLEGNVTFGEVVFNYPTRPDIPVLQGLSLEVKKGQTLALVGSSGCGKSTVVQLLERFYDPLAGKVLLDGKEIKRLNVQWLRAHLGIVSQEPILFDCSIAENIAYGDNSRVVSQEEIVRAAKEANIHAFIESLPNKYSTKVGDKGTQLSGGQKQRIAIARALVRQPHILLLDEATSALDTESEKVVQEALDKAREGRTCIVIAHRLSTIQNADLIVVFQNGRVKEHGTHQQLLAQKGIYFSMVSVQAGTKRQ
- Assay Info: Inhibition of ABCB1 in human HEK293 cells in the presence of doxorubicin
- Format: cell-based
Endpoint Name: pIC50
Units for pIC50: none; it is -log10 of a concentration expressed in mol/L.

Summary for this molecule, COc1ccc2cc1Oc1ccc(cc1)C[C@H]1c3cc(c(OC)cc3CCN1C)Oc1c(OC)c(OC)c(OC)c3c1[C@H](C2)N(C)CC3 [HERNANDEZINE] : pIC50 is 7.60

* * *

- Assay Info: Antiproliferative activity against human BJ cells assessed as inhibition of cell survival by MTT assay
- Type: toxicity, cell-based
- Particulars: read-out: LC50 (the source's name)
Endpoint Name: CC50 (µM)
Kindly answer with a numeric value in µM, unit omitted.

Summary for this compound, Cc1cn(-c2cc(NC(=O)c3ccc(C)c(Nc4nccc(-c5cccnc5)n4)c3)cc(C(F)(F)F)c2)cn1 : CC50 is 5.6

* * *

- System Under Test: ATP-dependent translocase ABCB1 (Homo sapiens, UniProt P08183)
- Assay Info: Inhibition of ABCB1 efflux pump in human LS180 cells using Rh123 as substrate incubated for 90 mins by fluorescence based assay
I'd be grateful if you could share measured pEC50 for these entries.
Units for pEC50: none; it is -log10 of a concentration expressed in mol/L.

Summary for this compound, O=C(Nc1ccc(F)cc1)c1sccc1Nc1cccc2c1OCCO2 : pEC50 is 4.46

Summary for this compound, O=C(Nc1ccc(F)cc1)c1sccc1Nc1cccc2c1OCO2 : pEC50 is 4.46

* * *

- Assay Info: Antiproliferative activity against human HaCaT cells assessed as inhibition of cell survival by MTT assay
- Type: toxicity, cell-based
- Particulars: read-out: LC50 (the source's name)
Endpoint Name: CC50 (µM)
Kindly answer with a numeric value in µM, unit omitted.

Summary for this compound, Cc1cn(-c2cc(NC(=O)c3ccc(C)c(Nc4nccc(-c5cccnc5)n4)c3)cc(C(F)(F)F)c2)cn1 : CC50 is 3.9

* * *

I'd be grateful if you could share measured IC50 at 72 h for these entries.
- Assay Info: Antiproliferative activity against human Flp-In-293 cells expressing ABCB1 assessed as cell growth inhibition incubated for 72 hrs by SRB assay
- Assay type: toxicity, cell-based

Summary for this compound, COc1cccc2c1C(=O)c1c(O)c3c(c(O)c1C2=O)C[C@@](O)(C(=O)CO)C[C@@H]3O[C@H]1C[C@H](N)[C@H](O)[C@H](C)O1 [DOXORUBICIN] : IC50 at 72 h is < 40 µM

Summary for this compound, CC(=O)O[C@H]1C(=O)[C@@]2(C)[C@H]([C@H](OC(=O)c3ccccc3)[C@]3(O)C[C@H](OC(=O)[C@H](O)[C@@H](NC(=O)c4ccccc4)c4ccccc4)C(C)=C1C3(C)C)[C@]1(OC(C)=O)CO[C@@H]1C[C@@H]2O [PACLITAXEL] : IC50 at 72 h is < 40 µM

Summary for this compound, CC[C@]1(O)C[C@H]2CN(CCc3c([nH]c4ccccc34)[C@@](C(=O)OC)(c3cc4c(cc3OC)N(C=O)[C@H]3[C@@](O)(C(=O)OC)[C@H](OC(C)=O)[C@]5(CC)C=CCN6CC[C@]43[C@@H]65)C2)C1 [VINCRISTINE] : IC50 at 72 h is < 40 µM

* * *

- System Under Test: ATP-dependent translocase ABCB1 (Homo sapiens, UniProt P08183)
- Assay Info: Inhibition of P-gp1 efflux in human Flp-In-293 cells using calcein-AM as substrate assessed as increase in intracellular accumulation of calcein-AM preincubated for 30 mins followed by substrate addition and measured for 30 mins by fluorescence based assay
- Format: cell-based
Endpoint Name: pIC50
Units for pIC50: none; it is -log10 of a concentration expressed in mol/L.

Summary for this molecule, COc1cc(/C=C/C(=O)CC(=O)/C=C/c2ccc(O)cc2)ccc1O : pIC50 is 5.81

* * *

- System Under Test: ATP-dependent translocase ABCB1 (Homo sapiens, UniProt P08183)
- Assay Info: Inhibition of P-gp1 efflux in human Flp-In-293 cells using rhodamine as substrate assessed as increase in intracellular accumulation of rhodamine 123 preincubated for 30 mins followed by substrate addition and measured for 10 mins by fluorescence based assay
- Format: cell-based
Endpoint Name: pIC50
Units for pIC50: none; it is -log10 of a concentration expressed in mol/L.

Summary for this molecule, COc1cc(/C=C/C(=O)CC(=O)/C=C/c2ccc(O)cc2)ccc1O : pIC50 is 5.81

* * *

- System Under Test: ATP-dependent translocase ABCB1 (Homo sapiens)
- Assay Info: Inhibition of ABCB1 in human HEK293 cells
- Assay type: cell-based
Endpoint Name: pIC50
Units for pIC50: none; it is -log10 of a concentration expressed in mol/L.

GET /values?item= COc1cccc2c1C(=O)c1c(O)c3c(c(O)c1C2=O)C[C@@](O)(C(=O)CO)C[C@@H]3O[C@H]1C[C@H](N)[C@H](O)[C@H](C)O1 [DOXORUBICIN] &system= ATP-dependent translocase ABCB1 (Homo sapiens) returns pIC50: 6.30
